Reported self-splicing fitness (ln) values for a set of sequences
experiment: self-splicing fitness, log relative to wild type (ln ratio); higher = more splicing; Tetrahymena group I intron in knt gene, E. coli kanamycin selection, DiMSum; sequences stand for … in CUCUCU…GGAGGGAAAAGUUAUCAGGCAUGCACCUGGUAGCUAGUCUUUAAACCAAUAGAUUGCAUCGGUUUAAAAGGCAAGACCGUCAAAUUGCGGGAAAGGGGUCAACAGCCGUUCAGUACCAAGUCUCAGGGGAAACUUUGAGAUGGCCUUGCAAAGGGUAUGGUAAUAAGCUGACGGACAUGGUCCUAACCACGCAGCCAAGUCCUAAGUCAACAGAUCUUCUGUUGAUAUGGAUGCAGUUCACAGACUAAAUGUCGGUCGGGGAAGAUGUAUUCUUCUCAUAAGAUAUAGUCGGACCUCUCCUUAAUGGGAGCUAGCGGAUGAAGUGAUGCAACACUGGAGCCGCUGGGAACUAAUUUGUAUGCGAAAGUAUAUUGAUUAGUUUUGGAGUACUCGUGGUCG; conditions: 30 °C;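 further: selection with 25 µg/mL kanamycin versus none on LB agar overnight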
Simply state the number, no unit and no words.

{"residue_sequence": "UACAAGCAAUAUUACGGCAU", "measured_attribute": "self-splicing fitness (ln)", "measured_result": -1.49}

Request: Consider the sequence UUGCAGCAAUAUUACGAAUA and give its recorded self-splicing fitness (ln).
Result: -1.66

Request: Consider the sequence GAAGAGCAAUAUUACGGAAA and give its recorded self-splicing fitness (ln).
Result: -2.81

Request: Consider the sequence GAUAAGCAAUAUUACGCUUU and give its recorded self-splicing fitness (ln).
Result: -1.7

Request: Consider the sequence CCCCAGCAAUAUUACGUGGU and give its recorded self-splicing fitness (ln).
Result: -2.64

Request: Consider the sequence CAACAGCAAUAUUACGGGCA and give its recorded self-splicing fitness (ln).
Result: -2.61

Request: Consider the sequence GCCGAGCAAUAUUACGGAUG and give its recorded self-splicing fitness (ln).
Result: -1.38

Request: Consider the sequence CGUGAGCAAUAUUACGCUCA and give its recorded self-splicing fitness (ln).
Result: -2.84

Request: Consider the sequence UGCAAGCAAUAUUACGCAUC and give its recorded self-splicing fitness (ln).
Result: -1.87

Request: Consider the sequence AUCAAGCAAUAUUACGUGCC and give its recorded self-splicing fitness (ln).
Result: -1.51

Request: Consider the sequence ACCCAGCAAUAUUACGGGGU and give its recorded self-splicing fitness (ln).
Result: -3.58

Request: Consider the sequence AUACAGCAAUAUUACGACAA and give its recorded self-splicing fitness (ln).
Result: -1.19

Request: Consider the sequence GUAGAGCAAUAUUACGCCCC and give its recorded self-splicing fitness (ln).
Result: -1.39

* * *

experiment: self-splicing fitness, log relative to wild type (ln ratio); higher = more splicing; Tetrahymena group I intron in knt gene, E. coli kanamycin selection, DiMSum; sequences stand for … in CUCUCU…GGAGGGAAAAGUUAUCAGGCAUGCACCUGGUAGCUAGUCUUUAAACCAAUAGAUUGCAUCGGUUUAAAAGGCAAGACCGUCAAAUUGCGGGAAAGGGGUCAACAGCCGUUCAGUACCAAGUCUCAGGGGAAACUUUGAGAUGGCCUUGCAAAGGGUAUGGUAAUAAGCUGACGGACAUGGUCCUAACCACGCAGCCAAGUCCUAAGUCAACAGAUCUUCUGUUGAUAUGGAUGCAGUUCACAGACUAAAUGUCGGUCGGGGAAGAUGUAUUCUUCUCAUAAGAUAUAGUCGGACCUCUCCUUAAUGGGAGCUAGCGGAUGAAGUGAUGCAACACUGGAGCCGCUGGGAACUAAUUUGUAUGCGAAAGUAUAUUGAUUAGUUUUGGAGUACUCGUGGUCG; conditions: 30 °C
measured_attribute: self-splicing fitness (ln)
Simply state the number, no unit and no words.

Record excerpt, results attached:
{"residue_sequence": "ACCUAGCAAUAUUACGCAAU", "measured_attribute": "self-splicing fitness (ln)", "measured_result": -2}
{"residue_sequence": "CUCGAGCAAUAUUACGACAG", "measured_attribute": "self-splicing fitness (ln)", "measured_result": -1.76}

Request: Consider the sequence UCUUAGCAAUAUUACGCUGG and give its recorded self-splicing fitness (ln).
Result: -2.64

Request: Consider the sequence UCCCAGCAAUAUUACGUCUU and give its recorded self-splicing fitness (ln).
Result: -2.99

Request: Consider the sequence AUAGAGCAAUAUUACGAUAU and give its recorded self-splicing fitness (ln).
Result: -0.196
